Measured values drawn from the supplement of paper PMC11061612 for this set.

System: SW1271 (Small Cell Lung Carcinoma)
Experiment: Bliss excess, mean over the matrix (fraction); higher = more synergy;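 further: after 72 h of two-drug dosing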
Result type: Bliss excess

>  <Compound>
CN(C)CCCOc1ccc(-c2ccc3ncc4c(c3c2)n(C2CCOCC2)c(=O)n4C)cn1 [AZD0156] + O=C(c1cc(Cc2n[nH]c(=O)c3ccccc23)ccc1F)N1CCN(C(=O)C2CC2)CC1 [Olaparib] (first compound max 3 µM, partner max 3 µM)

>  <Experimental value>
0.0098

$$$$
>  <Compound>
COc1cc2ncnc(Nc3ccc(F)c(Cl)c3)c2cc1OCCCN1CCOCC1 [Gefitinib] + CC(C)n1c(=O)n(C)c2cnc3cc(F)c(-c4ccc(OCCCN5CCCCC5)nc4)cc3c21 [AZD1390] (first compound max 10 µM, 7x7, partner max 0.3 µM)

>  <Experimental value>
-0.0388

$$$$
>  <Compound>
COc1cccc2c1C(=O)c1c(O)c3c(c(O)c1C2=O)C[C@@](O)(C(=O)CO)C[C@@H]3O[C@H]1C[C@H](N)[C@H](O)[C@H](C)O1 [Doxorubicin] + Cc1cc2ncnn2cc1Nc1ncc2c(n1)n(C1CCOCC1)c(=O)n2C [AZD7648] (first compound max 1 µM, 7x7, partner max 10 µM)

>  <Experimental value>
0.0452

$$$$
>  <Compound>
Cc1c2c(nn1C)CSCc1cc(n(C)n1)CSc1cc(c3ccccc3c1)OCCCc1c(C(=O)O)n(C)c3c-2c(Cl)ccc13 [AZD5991] + C[C@@H]1COCCN1C2=NC(=NC(=C2)C3(CC3)[S@](=N)(=O)C)C4=C5C=CNC5=NC=C4 [AZD6738] (first compound max 1 µM, 7x7, partner max 10 µM)

>  <Experimental value>
0.0121

$$$$

###

Test system: LoVo (Colorectal Carcinoma)
Experiment: Bliss excess, mean over the matrix (fraction); higher = more synergy
# maps each entry to its Bliss excess

>  <Compound>
Cc1c2c(nn1C)CSCc1cc(n(C)n1)CSc1cc(c3ccccc3c1)OCCCc1c(C(=O)O)n(C)c3c-2c(Cl)ccc13 [AZD5991] + C[C@@H](Nc1cc(F)cc(F)c1)c1cc(C(=O)N(C)C)cc2c(=O)cc(N3CCOCC3)oc12 [AZD8186] (first compound max 1 µM, 7x7, partner max 3 µM)

>  <Target system>
LoVo (Colorectal Carcinoma)

>  <Bliss excess>
0.0005

$$$$
>  <Compound>
C[C@@H]1COCCN1c1cc(C2([S@](C)(=N)=O)CC2)nc(-c2ccnc3[nH]ccc23)n1 [AZD6738] + C1CC(C1)(C(=O)[O-])C(=O)[O-].N.N.[Pt+2] [Carboplatin] (first compound max 10 µM, 7x7, partner max 10 µM)

>  <Target system>
LoVo (Colorectal Carcinoma)

>  <Bliss excess>
-0.0743

$$$$
>  <Compound>
N#Cc1cnc(Nc2cc(NC[C@H]3CNCCO3)c(C(F)(F)F)cn2)cn1 [SRA737] + CCc1c2c(nc3ccc(O)cc13)-c1cc3c(c(=O)n1C2)COC(=O)[C@]3(O)CC [SN-38] (first compound max 10 µM, 7x7, partner max 0.3 µM)

>  <Target system>
LoVo (Colorectal Carcinoma)

>  <Bliss excess>
-0.0227

$$$$
>  <Compound>
Cn1cnc2c(F)c(Nc3ccc(Br)cc3Cl)c(C(=O)NOCCO)cc21 [Selumetinib] + CCN(CCO)CCCOc1ccc2c(Nc3cc(CC(=O)Nc4cccc(F)c4)[nH]n3)ncnc2c1 [AZD2811] (first compound max 10 µM, 7x7, partner max 1 µM)

>  <Target system>
LoVo (Colorectal Carcinoma)

>  <Bliss excess>
0.0139

$$$$
>  <Compound>
N#Cc1cnc(Nc2cc(NC[C@H]3CNCCO3)c(C(F)(F)F)cn2)cn1 [SRA737] + C=CCn1c(=O)c2cnc(Nc3ccc(N4CCN(C)CC4)cc3)nc2n1-c1cccc(C(C)(C)O)n1 [AZD1775] (first compound max 10 µM, partner max 1 µM)

>  <Target system>
LoVo (Colorectal Carcinoma)

>  <Bliss excess>
0.0837

$$$$
>  <Compound>
CN(CCO)CC[C@H](CSc1ccccc1)Nc1ccc(S(=O)(=O)NC(=O)c2ccc(N3CCC([C@@H](O)c4ccccc4-c4ccc(Cl)cc4)CC3)cc2)cc1S(=O)(=O)C(F)(F)F [AZD4320] + Nc1ccn([C@@H]2O[C@H](CO)[C@@H](O)C2(F)F)c(=O)n1 [Gemcitabine] (first compound max 1 µM, 7x7, partner max 0.3 µM)

>  <Target system>
LoVo (Colorectal Carcinoma)

>  <Bliss excess>
-0.0476

$$$$
>  <Compound>
Cc1c2c(nn1C)CSCc1cc(n(C)n1)CSc1cc(c3ccccc3c1)OCCCc1c(C(=O)O)n(C)c3c-2c(Cl)ccc13 [AZD5991] + CCN(CCO)CCCOc1ccc2c(Nc3cc(CC(=O)Nc4cccc(F)c4)[nH]n3)ncnc2c1 [AZD2811] (first compound max 1 µM, 7x7, partner max 1 µM)

>  <Target system>
LoVo (Colorectal Carcinoma)

>  <Bliss excess>
-0.0257

$$$$

###

Tested on: HMV-II (Melanoma)
Experiment: Bliss excess, mean over the matrix (fraction); higher = more synergy

>  <Compound>
CC1(C)CCC(CN2CCN(c3ccc(C(=O)NS(=O)(=O)c4ccc(NCC5CCOCC5)c([N+](=O)[O-])c4)c(Oc4cnc5[nH]ccc5c4)c3)CC2)=C(c2ccc(Cl)cc2)C1 [Venetoclax] + CS(=O)(=O)CCNCc1ccc(-c2ccc3ncnc(Nc4ccc(OCc5cccc(F)c5)c(Cl)c4)c3c2)o1 [Lapatinib] (first compound max 1 µM, 7x7, partner max 10 µM)

>  <Bliss excess>
-0.045

$$$$
>  <Compound>
Cc1c2c(nn1C)CSCc1cc(n(C)n1)CSc1cc(c3ccccc3c1)OCCCc1c(C(=O)O)n(C)c3c-2c(Cl)ccc13 [AZD5991] + C=CCn1c(=O)c2cnc(Nc3ccc(N4CCN(C)CC4)cc3)nc2n1-c1cccc(C(C)(C)O)n1 [AZD1775] (first compound max 1 µM, partner max 1 µM)

>  <Bliss excess>
0.0001

$$$$
>  <Compound>
Cc1nc(Nc2ncc(C(=O)Nc3c(C)cccc3Cl)s2)cc(N2CCN(CCO)CC2)n1 [Dasatinib] + CC(=O)Nc1cccc(-n2c(=O)n(C3CC3)c(=O)c3c(Nc4ccc(I)cc4F)n(C)c(=O)c(C)c32)c1 [Trametinib] (first compound max 2 µM, 7x7, partner max 1 µM)

>  <Bliss excess>
-0.136

$$$$

###

Tested on: Hs-633T (Other Solid Carcinomas)
Experiment: Bliss excess, mean over the matrix (fraction); higher = more synergy

>  <Compound>
Cc1c2c(nn1C)CSCc1cc(n(C)n1)CSc1cc(c3ccccc3c1)OCCCc1c(C(=O)O)n(C)c3c-2c(Cl)ccc13 [AZD5991] + Nc1ccn([C@@H]2O[C@H](CO)[C@@H](O)C2(F)F)c(=O)n1 [Gemcitabine] (first compound max 1 µM, 7x7, partner max 0.3 µM)

>  <Bliss excess>
-0.0611

$$$$
>  <Compound>
O=C(c1cc(Cc2n[nH]c(=O)c3ccccc23)ccc1F)N1CCN(C(=O)C2CC2)CC1 [Olaparib] + CN(CC[C@H](CSC1=CC=CC=C1)NC2=C(C=C(C=C2)S(=O)(=O)NC(=O)C3=CC=C(C=C3)N4CCC(CC4)[C@H](C5=CC=CC=C5C6=CC=C(C=C6)Cl)O)S(=O)(=O)C(F)(F)F)CCO [AZD4320] (first compound max 10 µM, 7x7, partner max 1 µM)

>  <Bliss excess>
0.0017

$$$$
>  <Compound>
CCc1c2c(nc3ccc(O)cc13)-c1cc3c(c(=O)n1C2)COC(=O)[C@]3(O)CC [SN-38] + CN(C)CCCOc1ccc(-c2ccc3ncc4c(c3c2)n(C2CCOCC2)c(=O)n4C)cn1 [AZD0156] (first compound max 0.3 µM, 7x7, partner max 1 µM)

>  <Bliss excess>
0.153

$$$$
>  <Compound>
COc1nnc2ccc(N3CCC(c4ccc(OCCN5CCN(C)C(=O)[C@H]5C)cc4)CC3)nn12 [AZD5153] + C[C@@H]1COCCN1C2=NC(=NC(=C2)C3(CC3)[S@](=N)(=O)C)C4=C5C=CNC5=NC=C4 [AZD6738] (first compound max 1 µM, 7x7, partner max 10 µM)

>  <Bliss excess>
0.0037

$$$$
>  <Compound>
C[C@@H](Oc1cc(-c2cnn(C3CCNCC3)c2)cnc1N)c1c(Cl)ccc(F)c1Cl [Crizotinib] + Cn1cnc2c(F)c(Nc3ccc(Br)cc3Cl)c(C(=O)NOCCO)cc21 [Selumetinib] (first compound max 10 µM, 7x7, partner max 10 µM)

>  <Bliss excess>
0.0381

$$$$
>  <Compound>
C[C@@H]1COCCN1c1cc(C2([S@](C)(=N)=O)CC2)nc(-c2ccnc3[nH]ccc23)n1 [AZD6738] + O=C(c1cc(Cc2n[nH]c(=O)c3ccccc23)ccc1F)N1CCN(C(=O)C2CC2)CC1 [Olaparib] (first compound max 10 µM, 7x7, partner max 10 µM)

>  <Bliss excess>
0.0221

$$$$
>  <Compound>
COc1nnc2ccc(N3CCC(c4ccc(OCCN5CCN(C)C(=O)[C@H]5C)cc4)CC3)nn12 [AZD5153] + CCN(CCO)CCCOc1ccc2c(Nc3cc(CC(=O)Nc4cccc(F)c4)[nH]n3)ncnc2c1 [AZD2811] (first compound max 1 µM, 7x7, partner max 1 µM)

>  <Bliss excess>
-0.0285

$$$$
